Biological target: AKR1C1 (Homo sapiens)
Sequence (Q04828 1-323): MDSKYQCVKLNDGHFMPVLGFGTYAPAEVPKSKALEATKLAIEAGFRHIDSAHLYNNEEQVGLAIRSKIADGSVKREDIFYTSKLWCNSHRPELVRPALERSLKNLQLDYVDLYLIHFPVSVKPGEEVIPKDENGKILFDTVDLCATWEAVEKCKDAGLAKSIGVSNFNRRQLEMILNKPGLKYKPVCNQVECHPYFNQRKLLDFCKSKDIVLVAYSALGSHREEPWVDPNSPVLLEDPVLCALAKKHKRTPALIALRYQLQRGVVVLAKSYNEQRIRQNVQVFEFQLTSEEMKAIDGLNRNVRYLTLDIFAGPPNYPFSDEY
Assay: Enzyme activity (NADPH) assay with s-tetralol, recombinant GST-AKR1C1;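 further: GST-fused AKR1C1 expressed in E. coli and purified by glutathione affinity, control wells received DMSO instead of compound, duplicate samples from a single experiment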
Type: biochemical
Set-up: made in house; host or cells: Escherichia coli JM109
Details: 2 μM compound; Supplementary Table 1; CON = 1
Answer -1 if ratio (activity relative to CON) is under 0.9, and 1 if it is 0.9 or more.

Query string: Confirm if ratio (activity relative to CON) reported for the molecule COc1c(O[C@@H]2O[C@H](C(=O)O)[C@@H](O)[C@H](O)[C@H]2O)cc(O)c2c(=O)cc(-c3ccccc3)oc12 [Wogonoside] is 0.9 or above.
Result string: 1

Query string: Confirm if ratio (activity relative to CON) reported for the molecule COc1cc(C(=O)OCCCCN=C(N)N)cc(OC)c1O.Cl [Leonurine hydrochloride] is 0.9 or above.
Result string: -1

Query string: Confirm if ratio (activity relative to CON) reported for the molecule C=C1C(=O)O[C@@H]2/C=C(\C)CC/C=C(\C)CC[C@@H]12 [Costundide] is 0.9 or above.
Result string: -1

Query string: Confirm if ratio (activity relative to CON) reported for the molecule CC(C)=CCc1cc2c(cc1O)oc(=O)c1c3ccc(O)cc3oc21 [Psoralidin] is 0.9 or above.
Result string: 1

Query string: Confirm if ratio (activity relative to CON) reported for the molecule COc1cc(O)c2c(c1)C(=O)c1cc(C)cc(O)c1C2=O [Emodin-3-methyl ether] is 0.9 or above.
Result string: 1

Query string: Confirm if ratio (activity relative to CON) reported for the molecule Oc1cc(O)c2c(c1)O[C@H](c1cc(O)c(O)c(O)c1)[C@H](O)C2 [(−)-Epigallocatechin] is 0.9 or above.
Result string: 1

Query string: Confirm if ratio (activity relative to CON) reported for the molecule COc1cc2c(cc1O)CC[n+]1cc3c(OC)c(OC)ccc3cc1-2.[Cl-] [Jatrorrhizine Hydrochloride] is 0.9 or above.
Result string: 1

Query string: Confirm if ratio (activity relative to CON) reported for the molecule COc1cc2c(c(OC)c1OC)-c1c(cc3c(c1OC)OCO3)CC(C)C(C)C2 (centres unmarked) [Schizandrin B] is 0.9 or above.
Result string: 1

Query string: Confirm if ratio (activity relative to CON) reported for the molecule O=C([O-])C(O)Cc1ccc(O)c(O)c1.[Na+] (centres unmarked) [Sodium Danshensu] is 0.9 or above.
Result string: -1

Query string: Confirm if ratio (activity relative to CON) reported for the molecule C[C@H]1O[C@@H](O[C@H]2CC[C@@]3(C)[C@@H](CC[C@]4(C)[C@@H]3C=C[C@]35OC[C@@]6(CCC(C)(C)C[C@H]63)[C@H](O)C[C@]54C)[C@]2(C)CO)[C@H](O)[C@@H](O[C@@H]2O[C@H](CO)[C@@H](O)[C@H](O)[C@H]2O)[C@H]1O [Saikosaponin D] is 0.9 or above.
Result string: 1

Query string: Confirm if ratio (activity relative to CON) reported for the molecule C[C@H]1CC[C@@H]2N(C1)C[C@H]1[C@@H]3C[C@H]4[C@@H](C[C@H](O)[C@H]5C[C@@H](O)CC[C@@]54C)[C@@H]3CC[C@@H]1[C@]2(C)O [Peimine] is 0.9 or above.
Result string: 1

Query string: Confirm if ratio (activity relative to CON) reported for the molecule C[C@]12C[C@@H](O)[C@@H]3C[C@@]1(O[C@@H]1O[C@H](CO)[C@@H](O)[C@H](O)[C@H]1O)[C@@]3(COC(=O)c1ccccc1)C(=O)O2 [Albiflorin] is 0.9 or above.
Result string: 1

Query string: Confirm if ratio (activity relative to CON) reported for the molecule CC(C)=CCC[C@](C)(O[C@@H]1O[C@H](CO)[C@@H](O)[C@H](O)[C@H]1O)[C@H]1CC[C@]2(C)[C@@H]1[C@H](O)C[C@@H]1[C@@]3(C)CC[C@H](O)C(C)(C)[C@@H]3CC[C@]12C [Ginsenoside CK] is 0.9 or above.
Result string: 1

Query string: Confirm if ratio (activity relative to CON) reported for the molecule COc1cc2c(=O)c(-c3ccc(O)cc3)coc2cc1O[C@@H]1O[C@H](CO)[C@@H](O)[C@H](O)[C@H]1O [Glycitin] is 0.9 or above.
Result string: -1

Query string: Confirm if ratio (activity relative to CON) reported for the molecule COc1cc2c(c(OC)c1OC)-c1c(cc(OC)c(OC)c1OC)C[C@](C)(O)[C@@H](C)C2 [Schisandrol A] is 0.9 or above.
Result string: 1

Query string: Confirm if ratio (activity relative to CON) reported for the molecule O=C(O[C@@H]1Cc2c(O)cc(O)cc2O[C@@H]1c1ccc(O)c(O)c1)c1cc(O)c(O)c(O)c1 [(−)-Epicatechin gallate] is 0.9 or above.
Result string: -1

Query string: Confirm if ratio (activity relative to CON) reported for the molecule COc1c2c(cc3oc(CO[C@@H]4O[C@H](CO)[C@@H](O)[C@H](O)[C@H]4O)cc(=O)c13)O[C@H](C(C)(C)O)C2 [Prim-O-glucosylcimifugin] is 0.9 or above.
Result string: 1
